System: lambsquarters (Chenopodium album)
MEASUREMENT PROTOCOL: Test C preemergence
Assay type: in vivo
CONDITION DETAILS: Rate 125 g/ha; scale 0 to 100, 0 no effect, 100 complete control
QUANTITY NAME: Plant response rating, Lambsquarters

- COMPOUND: "CC(C)(C)c1ccn(C2CCN(c3ccc(F)c(Br)c3)C2=O)n1 (centres unmarked) [Compound 75]"
  QUANTITATIVE READOUT: 100
- COMPOUND: "CCCOc1cc(N2CCC(n3ccc(C(C)(C)C)n3)C2=O)ccc1C (centres unmarked) [Compound 107]"
  QUANTITATIVE READOUT: 100
- COMPOUND: "CCCC(C)c1ccn(C2CCN(c3ccc(Cl)c(OC)c3)C2=O)n1 (centres unmarked) [Compound 121]"
  QUANTITATIVE READOUT: 100
- COMPOUND: "CCC(C)c1ccn(C2CCN(c3ccc(Cl)c(OC)c3)C2=O)n1 (centres unmarked) [Compound 119]"
  QUANTITATIVE READOUT: 100
- COMPOUND: "CCC(CC)c1ccn(C2CCN(c3cccc(OC)c3)C2=O)n1 (centres unmarked) [Compound 96]"
  QUANTITATIVE READOUT: 100
